- Test system: A549/ATCC NSCLC
- assay.text: NCI-60 one-dose screen, 48 h (100 = growth as untreated, 0 = no growth, -100 = all killed)
- condition.summary: 10 µM unless noted
The panel holds about 83,000 compounds, 20% with a hit somewhere; the sample as a whole holds those more often.
Kindly return Met if reported growth is no lower than 20%; return Not met if it is lower.

compound=C[n+]1c(/C=C/c2ccc([N+](=O)[O-])cc2)ccc2ccccc21 category_label=Met
compound="CCCCCCC(C)c1ccccc1O (stereo unspecified) (tested in a mixture with another compound)" category_label=Met
compound=C=C(Cl)C(=NC(C)(C)C)Nc1ccccc1C category_label=Met
compound=Oc1c(Br)cc(Cl)cc1C(c1cc(Cl)cc(Br)c1O)C(Cl)(Cl)Cl category_label="Not met"
compound=NC(=S)N/N=C/c1ccc(Cl)s1 category_label=Met
compound=Cn1c2c(c3ccccc31)CCN1C[C@@H]3CCCC[C@H]3C[C@@H]21 category_label=Met

---

- Tested on: HCT-116 colon
- assay.text: NCI-60 one-dose screen, 48 h (100 = growth as untreated, 0 = no growth, -100 = all killed)
- condition.summary: 10 µM unless noted
This is part of a sample that, as a whole, favours compounds with a hit. Of some 83,000 tested, about 20% had one in any assay. Active and inactive are the calls of the source. Rule for the calls: active = growth percent below 10; inactive = the rest.
measured.attribute: growth

molecule=CCCCCCCCCCCCCCCCOP(=O)([O-])OCC[N+](C)(C)C assay_result="24.6% (inactive)"
molecule=NC(=S)N/N=C/c1ccc(Cl)s1 assay_result="93.4% (inactive)"
molecule=O=C(O)c1ccc2c3c(ncnc13)-c1ccccc1C2=O assay_result="91.2% (inactive)"
molecule=CCOc1ccc(-c2nc3ccc(-c4nc5ccc(N6CCN(C)CC6)cc5[nH]4)cc3[nH]2)cc1 assay_result="-77.6% (active)"
molecule=CCCCCCCCCCCCCCCCN(CC)CC assay_result="-52.5% (active)"
molecule=Cc1cc2nc(CS)[nH]c2cc1C assay_result="58.1% (inactive)"
molecule="Cc1ccnc(NC(c2ccccc2)c2ccc3cccnc3c2O)c1 (configuration not stated)" assay_result="31.8% (inactive)"
molecule=CCOC(=O)/C(=C\c1ccc(-c2ccccc2)cc1)C(C)=O assay_result="103% (inactive)"
molecule=Oc1ccc(/C=N/NC(=S)Nc2ccccc2)nc1 assay_result="21% (inactive)"
molecule=CNC(=O)N/N=C/c1ccc([N+](=O)[O-])o1 assay_result="94.8% (inactive)"
molecule="C1=C(c2ccccc2)C(c2ccc(OCCN3CCCCC3)cc2)Oc2ccccc21 (configuration not stated)" assay_result="46.6% (inactive)"
molecule=CC(C)c1ccc2nc3ccc(C(=O)NCCN4CCN(c5ccccc5)CC4)cn3c(=O)c2c1 assay_result="53.6% (inactive)"

---

- System: LOX IMVI melanoma
- assay.text: NCI-60 one-dose screen, 48 h (100 = growth as untreated, 0 = no growth, -100 = all killed)
- condition.summary: 10 µM unless noted
About 83,000 compounds went through this panel and 20% of them were active in at least one assay; those are over-represented in the sample as a whole. Activity calls are given as the source filed them. Rule for the calls: active = growth percent below 10; inactive = the rest.
In this section we review reported growth values for a set of molecules.
measured.attribute: growth

molecule=NC(=S)N/N=C/c1ccc(Cl)s1 assay_result="101% (inactive)"
molecule=CN(C)c1ccc(N=Nc2cccc3ccccc23)cc1 assay_result="96.3% (inactive)"
molecule=CC(C)(C)c1ccc(O)c(C2CCCCC2)c1 assay_result="104% (inactive)"
molecule=CCC(CC)COC(=O)c1ccc(O)c(O)c1 assay_result="69.2% (inactive)"
molecule="CCC(CCCN(CC)CCc1ccccc1)OC(=O)c1cc(OC)c(OC)c(OC)c1 (centres undefined)" assay_result="80.9% (inactive)"
molecule=N#CSCc1ccc(CSC#N)c(Cl)c1 assay_result="46.6% (inactive)"
molecule=COC(=O)c1nc(=S)[nH]c(C(=O)OC)c1C(=O)c1ccc2ccccc2c1 assay_result="94.7% (inactive)"
molecule=C=C(Cl)C(=NC(C)(C)C)Nc1ccccc1C assay_result="81.1% (inactive)"
molecule=CCN1/C(=C\c2cc[n+](CC)c3ccccc23)C=Cc2ccccc21 assay_result="4.04% (active)"
molecule=COc1ccc(N=N/N=c2\sc3cc(OC)ccc3n2C)cc1 assay_result="105% (inactive)"
molecule=CC(=O)C(=Cc1ccc(C=C(C(C)=O)C(C)=O)cc1)C(C)=O assay_result="-97.8% (active)"
molecule=CCOC(=O)/C=C/c1ccc([N+](=O)[O-])o1 assay_result="-29.6% (active)"
molecule=CCOC(=O)/C(=C\c1ccc(-c2ccccc2)cc1)C(C)=O assay_result="98.4% (inactive)"
molecule=Cc1ccc(C(=Nc2ccccc2)N=P(c2ccccc2)(c2ccccc2)c2ccccc2)cc1 assay_result="-82.9% (active)"

---

- Test system: NCI/ADR-RES ovarian
- assay.text: NCI-60 one-dose screen, 48 h (100 = growth as untreated, 0 = no growth, -100 = all killed)
- condition.summary: 100 µM
This is part of a sample that, as a whole, favours compounds with a hit. Of some 83,000 tested, about 20% had one in any assay.
measured.attribute: growth (%)

line_notation=CN(C)C(=O)c1ccc(SC(=S)NCc2ccccc2)cc1 assay_result=2.6
line_notation=COc1ccc(-c2cscc2N)cc1 assay_result=78.1
line_notation=O=C(O)c1c(Cl)c(Cl)c(Cl)c(Cl)c1-c1c2cc(I)c(=O)c(I)c-2oc2c(I)c(O)c(I)cc12 assay_result=10.7
line_notation=O=C(Nc1c(Cl)cccc1Cl)Oc1cccc2cccnc12 assay_result=3.5

---

In this section we review reported growth values for a set of compounds.
- Test system: RPMI-8226 leukemia
- assay.text: NCI-60 one-dose screen, 48 h (100 = growth as untreated, 0 = no growth, -100 = all killed)
- condition.summary: 100 µM
About 83,000 compounds went through this panel and 20% of them were active in at least one assay; those are over-represented in the sample as a whole.
measured.attribute: growth (%)

line_notation=O=C(Nc1cccc(Br)c1)Oc1cccc2cccnc12 assay_result=1.75
line_notation=COc1ccc(-c2cscc2N)cc1 assay_result=23.7
line_notation=O=C(Nc1c(Cl)cccc1Cl)Oc1cccc2cccnc12 assay_result=2.58
line_notation=O=C(O)c1c(Cl)c(Cl)c(Cl)c(Cl)c1-c1c2cc(I)c(=O)c(I)c-2oc2c(I)c(O)c(I)cc12 assay_result=24.3

---

- Test system: NCI-H522 lung
- assay.text: NCI-60 one-dose screen, 48 h (100 = growth as untreated, 0 = no growth, -100 = all killed)
- condition.summary: 10 µM unless noted
The panel holds about 83,000 compounds, 20% with a hit somewhere; the sample as a whole holds those more often.
Each record is given satisfied if its reported growth is strictly below 10%. Records at or above 10% are given not satisfied.

compound=Nc1nc(N)c2c(ccc3c2ccn3Cc2cccc([N+](=O)[O-])c2)n1 category_label=satisfied
compound=NC(N)=N/N=C/c1ccc([N+](=O)[O-])o1 category_label="not satisfied"
compound=Cc1ccnc2c1ccc1c(C)ccnc12 category_label="not satisfied"
compound=Cc1c2ccccc2c(C)c2c1ccc1ccccc12 category_label="not satisfied"
compound=CCC(CC)COC(=O)c1ccc(O)c(O)c1 category_label=satisfied
compound="CN1c2ccccc2C(C)(C)C12C=Cc1cc(O)ccc1O2 (configuration not stated)" category_label=satisfied
compound="CCC(c1cccc(O)c1)C(CC)c1cccc(O)c1 (configuration not stated)" category_label="not satisfied"

---

- Tested on: ACHN renal
- assay.text: NCI-60 one-dose screen, 48 h (100 = growth as untreated, 0 = no growth, -100 = all killed)
- condition.summary: 10 µM unless noted
About 83,000 compounds went through this panel and 20% of them were active in at least one assay; those are over-represented in the sample as a whole.
In this section we review reported growth values for a set of compounds.
measured.attribute: growth (%)

compound=N#CSCc1ccc(CSC#N)c(Cl)c1 measured_attribute=growth assay_result=56.5
compound=CCCCCC(CCCCC)C(=O)O measured_attribute=growth assay_result=109
compound=Cc1ccc2nc(C[n+]3ccc4ccccc4c3)ccc2c1 measured_attribute=growth assay_result=101
compound=NC(=O)/C=C/C(=O)c1c(Cl)cccc1Cl measured_attribute=growth assay_result=-76.3
compound=CNC(=O)N/N=C/c1ccc([N+](=O)[O-])o1 measured_attribute=growth assay_result=106
compound="CC1OC(OC2C(OC3CCC4(C)C(CCC5(C)C4CC=C4C6CC(C)(C)CCC6(CO)C(O)CC45C)C3(C)C)OC(C(=O)O)C(OC3OC(COC4OC(CO)C(O)C(O)C4O)C(O)C(O)C3O)C2O)C(O)C(O)C1O (centres undefined)" measured_attribute=growth assay_result=-100
compound=N#CSCC(=O)c1ccc(Cl)cc1 measured_attribute=growth assay_result=52
compound=O[C@H]1[C@H]2c3cc4c(cc3CN3CCC(=C[C@@H]1O)[C@H]23)OCO4 measured_attribute=growth assay_result=9.15
compound=CCN(CC)CC(C)(C)C(=O)/C=C/c1ccc(Cl)c(Cl)c1 measured_attribute=growth assay_result=-42.8
compound=O=Nc1ccccc1N=O measured_attribute=growth assay_result=84.5
compound=O=C(Nc1ccccc1)c1cc(Cl)ccc1O measured_attribute=growth assay_result=57.3
compound=Cc1cc(N)c2ccccc2[n+]1CCCCCCCCCC[n+]1c(C)cc(N)c2ccccc21 measured_attribute=growth assay_result=42.8
compound="CCCCCCC(C)c1ccccc1O (centres undefined) (tested in a mixture with another compound)" measured_attribute=growth assay_result=110
compound=C=CCOc1ccc(N=NC(C#N)C#N)cc1 measured_attribute=growth assay_result=36
compound=C=C(Cl)C(=NC(C)(C)C)Nc1ccccc1C measured_attribute=growth assay_result=91
compound=CC(=Nc1ccc(N(C)C)cc1)c1ccccc1 measured_attribute=growth assay_result=59.8
compound="CN1c2ccccc2C(C)(C)C12C=Cc1cc(O)ccc1O2 (centres undefined)" measured_attribute=growth assay_result=73.3
compound=CNc1ccc(N)cc1 measured_attribute=growth assay_result=92.8
compound=Cc1ccc(C(=Nc2ccccc2)N=P(c2ccccc2)(c2ccccc2)c2ccccc2)cc1 measured_attribute=growth assay_result=2.97
compound=CC(C)c1ccc2nc3ccc(C(=O)NCCN4CCN(c5ccccc5)CC4)cn3c(=O)c2c1 measured_attribute=growth assay_result=72.1
compound=Cc1c2ccccc2c(C)c2c1ccc1ccccc12 measured_attribute=growth assay_result=97.2
compound=O=C1N[C@H]2[C@H](CS[C@H]2CCCCC(=O)N(CCP(c2ccccc2)c2ccccc2)CCP(c2ccccc2)c2ccccc2)N1 measured_attribute=growth assay_result=95.7
compound=Oc1c(Br)cc(Cl)cc1C(c1cc(Cl)cc(Br)c1O)C(Cl)(Cl)Cl measured_attribute=growth assay_result=10.5
compound=CC1(C)CC([P+](c2ccccc2)(c2ccccc2)c2ccccc2)=NN1 measured_attribute=growth assay_result=88.1
